Target: PI3-kinase p110-delta/p85-alpha (Homo sapiens, UniProt O00329)
Sequence (P27986 whole entry): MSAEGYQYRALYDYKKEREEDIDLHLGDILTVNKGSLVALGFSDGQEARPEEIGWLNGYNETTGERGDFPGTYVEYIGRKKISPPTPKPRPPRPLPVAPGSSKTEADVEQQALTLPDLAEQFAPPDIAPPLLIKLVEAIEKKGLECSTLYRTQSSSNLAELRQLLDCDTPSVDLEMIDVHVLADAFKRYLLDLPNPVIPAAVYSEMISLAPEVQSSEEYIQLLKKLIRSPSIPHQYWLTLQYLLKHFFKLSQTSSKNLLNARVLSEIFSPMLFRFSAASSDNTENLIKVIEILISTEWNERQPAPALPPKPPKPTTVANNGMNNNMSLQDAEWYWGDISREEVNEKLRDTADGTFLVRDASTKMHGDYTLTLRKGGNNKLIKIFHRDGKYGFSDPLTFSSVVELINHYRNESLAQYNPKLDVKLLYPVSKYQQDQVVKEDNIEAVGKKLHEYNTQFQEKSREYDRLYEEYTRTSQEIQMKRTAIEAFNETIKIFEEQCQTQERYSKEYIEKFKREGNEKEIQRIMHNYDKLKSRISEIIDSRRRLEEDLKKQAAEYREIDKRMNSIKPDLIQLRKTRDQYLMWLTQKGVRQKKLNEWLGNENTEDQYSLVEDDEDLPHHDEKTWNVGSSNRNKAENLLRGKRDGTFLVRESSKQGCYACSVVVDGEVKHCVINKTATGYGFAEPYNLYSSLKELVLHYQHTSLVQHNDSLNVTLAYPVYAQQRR
Sequence (O00329 whole entry): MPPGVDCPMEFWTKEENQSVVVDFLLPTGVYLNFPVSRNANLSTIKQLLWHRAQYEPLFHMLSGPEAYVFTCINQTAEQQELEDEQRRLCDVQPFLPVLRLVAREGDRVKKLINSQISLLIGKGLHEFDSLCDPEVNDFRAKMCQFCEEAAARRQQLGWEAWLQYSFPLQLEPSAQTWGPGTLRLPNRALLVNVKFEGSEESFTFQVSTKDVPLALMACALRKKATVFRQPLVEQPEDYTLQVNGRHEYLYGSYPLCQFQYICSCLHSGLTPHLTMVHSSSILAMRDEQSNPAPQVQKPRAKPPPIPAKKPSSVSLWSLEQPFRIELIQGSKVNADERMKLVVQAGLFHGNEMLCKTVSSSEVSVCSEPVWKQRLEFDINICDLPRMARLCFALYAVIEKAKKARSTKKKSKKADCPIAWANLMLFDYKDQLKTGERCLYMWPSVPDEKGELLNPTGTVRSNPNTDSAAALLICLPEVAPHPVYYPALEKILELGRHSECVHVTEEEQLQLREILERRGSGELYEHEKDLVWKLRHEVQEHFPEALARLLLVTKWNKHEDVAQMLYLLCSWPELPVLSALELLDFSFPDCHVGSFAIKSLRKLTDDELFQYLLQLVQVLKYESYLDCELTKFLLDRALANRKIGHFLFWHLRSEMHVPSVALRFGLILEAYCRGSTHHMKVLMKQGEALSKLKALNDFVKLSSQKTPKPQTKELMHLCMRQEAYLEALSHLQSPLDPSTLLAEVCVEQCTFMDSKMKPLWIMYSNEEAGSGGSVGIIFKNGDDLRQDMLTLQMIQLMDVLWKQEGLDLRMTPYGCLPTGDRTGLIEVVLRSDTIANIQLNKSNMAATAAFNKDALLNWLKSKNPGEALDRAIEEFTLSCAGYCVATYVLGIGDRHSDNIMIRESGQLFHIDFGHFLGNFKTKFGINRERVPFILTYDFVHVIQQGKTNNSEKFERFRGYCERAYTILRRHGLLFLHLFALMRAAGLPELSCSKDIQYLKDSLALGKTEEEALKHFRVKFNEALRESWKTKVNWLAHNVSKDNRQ
Assay: Inhibition of recombinant human full-length N-terminal GST-tagged p110delta/untagged full-length p85alpha expressed in baculovirus infected Sf21 cells using PIP2 as substrate preincubated for 15 mins followed by substrate addition and measured after 1 hr by HTRF assay
pIC50: −log10 of the molar value.
parameter: pIC50

Cn1cc(-c2ncc(C#N)c(N3C[C@@H]4C[C@H]3CN4C(=O)C3CC3)n2)cn1
6.79
C[C@@H]1CN(c2nc(-c3cnn(C)c3)ncc2C#N)CCN1c1cccc(F)c1
6.78
N#Cc1cnc(-c2cccnc2)nc1N1C[C@@H]2C[C@H]1CN2c1cccc(Cl)c1
6.32
Cn1cc(-c2ncc(C#N)c(N3CCN(c4cccc(F)c4)C(C)(C)C3)n2)cn1
5.82
N#Cc1cnc(-c2cnc3[nH]ccc3c2)nc1N1C[C@@H]2C[C@H]1CN2c1cccc(F)c1
6.04
